- tested target: UGT 1A1 (Homo sapiens, UniProt P22309)
- Sequence (P22309 26-533): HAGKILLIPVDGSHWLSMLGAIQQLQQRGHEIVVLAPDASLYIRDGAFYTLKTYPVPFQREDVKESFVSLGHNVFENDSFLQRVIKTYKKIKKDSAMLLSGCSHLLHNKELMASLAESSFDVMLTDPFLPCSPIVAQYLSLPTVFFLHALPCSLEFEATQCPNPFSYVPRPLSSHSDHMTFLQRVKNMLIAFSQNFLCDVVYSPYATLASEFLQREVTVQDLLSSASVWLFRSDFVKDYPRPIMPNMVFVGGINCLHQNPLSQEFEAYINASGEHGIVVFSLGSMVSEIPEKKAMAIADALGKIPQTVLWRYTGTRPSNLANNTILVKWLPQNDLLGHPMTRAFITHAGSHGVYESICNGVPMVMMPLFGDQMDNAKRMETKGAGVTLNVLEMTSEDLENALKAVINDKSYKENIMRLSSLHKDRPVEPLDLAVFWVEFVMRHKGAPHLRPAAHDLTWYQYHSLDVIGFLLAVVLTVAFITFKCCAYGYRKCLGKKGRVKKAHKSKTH
- test details: Inhibition of recombinant UGT 1A1 Supersomes, compound 3138 as substrate
- settings: 20 μM compound 3138, 0.1 mg/mL Supersomes, 90 minutes at 37° C.
measured metric: IC50 (µM)

- substance smiles: "O=C(O)Cc1ccccc1Nc1c(Cl)cccc1Cl"
  unit of measurement: "µM"
  measured number: 232
